# Study target: p300 HAT domain (residues 1287-1666) (Homo sapiens, UniProt Q09472)
# Sequence (Q09472 1287-1666): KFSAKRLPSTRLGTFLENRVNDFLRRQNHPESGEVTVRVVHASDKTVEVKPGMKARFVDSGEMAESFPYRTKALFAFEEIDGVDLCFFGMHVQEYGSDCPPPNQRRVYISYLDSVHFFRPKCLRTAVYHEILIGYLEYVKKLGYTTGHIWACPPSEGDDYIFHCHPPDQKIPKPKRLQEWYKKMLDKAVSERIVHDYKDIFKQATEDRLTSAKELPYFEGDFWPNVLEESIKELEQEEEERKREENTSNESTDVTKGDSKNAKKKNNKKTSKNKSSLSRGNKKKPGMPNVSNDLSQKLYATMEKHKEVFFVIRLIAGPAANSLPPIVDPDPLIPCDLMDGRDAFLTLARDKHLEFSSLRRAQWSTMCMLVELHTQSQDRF
pIC50: −log10 of the molar value.
Recorded metric: pIC50

[
  {
    "Molecule": "CC(CNC(C(=O)Nc1ccc(OC2CCN(C(=O)C3CC3)CC2)cn1)c1ccccc1)c1ccc(C#N)cc1 (single isomer, unassigned) [20 Isomer 2]",
    "pIC50": 7.57
  },
  {
    "Molecule": "N#Cc1ccc(CCNC(C(=O)Nc2ccc(OC3COC3)cn2)c2ccccc2)cc1 (single isomer, unassigned) [6 Isomer 1]",
    "pIC50": 7.40
  }
]

1 = N#Cc1ccc(CCNC(C(=O)Nc2ccc(O[C@@H]3CCOC3)cn2)c2ccccc2)cc1 (single isomer, unassigned) [4 Isomer 1]
2 = CC(=O)N1CC(Oc2ccc(NC(=O)C(NCC(C)c3ccc(C#N)cc3)c3cnn(C)c3)nc2)C1 (single isomer, unassigned) [24 Isomer 1]
Lower value for measured pIC50? Options: 1 , 2 Use the label to indicate which entry you chose. 1
(1: 7.04, 2: 7.42)

###

# Study target: p300 HAT domain (residues 1287-1666) (Homo sapiens)
# Sequence (Q09472 1287-1666): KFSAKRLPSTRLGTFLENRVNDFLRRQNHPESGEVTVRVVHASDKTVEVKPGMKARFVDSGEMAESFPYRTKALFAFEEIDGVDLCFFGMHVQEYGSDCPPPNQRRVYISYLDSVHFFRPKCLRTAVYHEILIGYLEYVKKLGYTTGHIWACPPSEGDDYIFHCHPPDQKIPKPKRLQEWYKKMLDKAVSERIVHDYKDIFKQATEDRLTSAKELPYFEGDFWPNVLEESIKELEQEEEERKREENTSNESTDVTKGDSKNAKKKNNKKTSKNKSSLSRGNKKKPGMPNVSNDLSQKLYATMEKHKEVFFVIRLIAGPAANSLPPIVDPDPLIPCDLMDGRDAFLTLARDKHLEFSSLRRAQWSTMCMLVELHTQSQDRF
pIC50: −log10 of the molar value.
Recorded metric: pIC50

a = Cn1cc(COc2ccc(NC(=O)C(NCCc3ccc(Cl)cc3)c3ccccc3)nc2)cn1 (single isomer, unassigned) [8 Isomer 2]
b = CN1CCC(Oc2ccc(NC(=O)C(NCCc3ccc(C#N)cc3)c3ccccc3)nc2)C1=O (single isomer, unassigned) [12 Isomer 2]
Lower value for measured pIC50? Options: a , b Use the label to indicate which entry you chose. b
(b: 7.20, a: 7.77)

###

# Study target: p300 HAT domain (residues 1287-1666) (Homo sapiens)
# Sequence (Q09472 1287-1666): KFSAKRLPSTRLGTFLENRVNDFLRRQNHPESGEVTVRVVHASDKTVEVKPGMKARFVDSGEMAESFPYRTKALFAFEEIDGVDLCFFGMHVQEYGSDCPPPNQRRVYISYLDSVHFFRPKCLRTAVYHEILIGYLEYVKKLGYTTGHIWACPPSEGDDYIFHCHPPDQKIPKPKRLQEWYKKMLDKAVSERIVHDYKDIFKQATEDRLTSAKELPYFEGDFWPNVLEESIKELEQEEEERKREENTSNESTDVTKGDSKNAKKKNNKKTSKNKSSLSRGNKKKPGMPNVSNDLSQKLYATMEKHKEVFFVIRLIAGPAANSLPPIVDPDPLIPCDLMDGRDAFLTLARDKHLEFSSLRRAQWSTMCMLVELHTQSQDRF
pIC50: −log10 of the molar value.
Recorded metric: pIC50

Sample answers from the record:
[
  {
    "Molecule": "CC(=O)N1CC[C@@H](Oc2ccc(NC(=O)C(NCCc3ccc(C#N)cc3)c3ccccc3)nc2)C1 (single isomer, unassigned) [14 Isomer 1]",
    "Study target": "p300 HAT domain (residues 1287-1666) (Homo sapiens)",
    "Experimental value": 7.44
  },
  {
    "Molecule": "N#Cc1ccc(CCNC(C(=O)Nc2ccc(OC3CCOCC3)cn2)c2ccccc2)cc1 (single isomer, unassigned) [5 Isomer 1]",
    "Study target": "p300 HAT domain (residues 1287-1666) (Homo sapiens)",
    "Experimental value": 7.01
  },
  {
    "Molecule": "CN1CC(Oc2ccc(NC(=O)C(NCCc3ccc(Cl)cc3)c3ccccc3)nc2)CCC1=O (single isomer, unassigned) [10 Isomer 1]",
    "Study target": "p300 HAT domain (residues 1287-1666) (Homo sapiens)",
    "Experimental value": 7.03
  },
  {
    "Molecule": "CC(=O)N1CC(Oc2ccc(NC(=O)C(NC[C@@H](C)c3ccc(C#N)cc3)c3ccccc3)nc2)C1 (single isomer, unassigned) [2 Isomer 1]",
    "Study target": "p300 HAT domain (residues 1287-1666) (Homo sapiens)",
    "Experimental value": 7.67
  },
  {
    "Molecule": "O=C(Nc1ccc(OCCn2cccn2)cn1)C(NCCc1ccc(Cl)cc1)c1ccccc1 (single isomer, unassigned) [7 Isomer 2]",
    "Study target": "p300 HAT domain (residues 1287-1666) (Homo sapiens)",
    "Experimental value": 7.01
  },
  {
    "Molecule": "CC(=O)N1CCC(Oc2ccc(NC(=O)C(NCCc3ccc(C#N)cc3)c3ccccc3)nc2)CC1 (single isomer, unassigned) [9 Isomer 1]",
    "Study target": "p300 HAT domain (residues 1287-1666) (Homo sapiens)",
    "Experimental value": 7.25
  }
]

A = CC(=O)N1CCC[C@H](Oc2ccc(NC(=O)C(NCCc3ccc(C#N)cc3)c3ccccc3)nc2)C1 (single isomer, unassigned) [15 Isomer 1]
B = CC(=O)N1CC(Oc2ccc(NC(=O)C(NCC(C)c3ccc(C#N)cc3)c3cccc(F)c3)nc2)C1 (single isomer, unassigned) [23 Isomer 1]
C = N#Cc1ccc(CCNC(C(=O)Nc2ccc(OC3COC3)cn2)c2ccccc2)cc1 (single isomer, unassigned) [6 Isomer 2]
D = CN1CCC(Oc2ccc(NC(=O)C(NCCc3ccc(C#N)cc3)c3ccccc3)nc2)C1=O (single isomer, unassigned) [12 Isomer 1]
E = CC(CNC(C(=O)Nc1ccc(OC2CN(C(=O)OC(C)(C)C)C2)cn1)c1ccccc1)c1ccc(C#N)cc1 (single isomer, unassigned) [25 Isomer 2]
Hello, I need these entries ordered by pIC50, highest reading first. Thanks! Return the labels ranked in the requested order, please. B, D, E, A, C
(B: 7.63, D: 7.19, E: 6.94, A: 6.57, C: 5.94)

###

pIC50, full length p300 (Homo sapiens): measured values
pIC50: −log10 of the molar value.

Sample answers from the record:
[
  {
    "Compound": "CC(=O)N1CC(Oc2ccc(NC(=O)C(NCC(C)c3ccc(C#N)cc3)c3cnn(C)c3)nc2)C1 (single isomer, unassigned) [24 Isomer 1]",
    "Study target": "full length p300 (Homo sapiens)",
    "Recorded metric": "pIC50",
    "Experimental value": "> 8.52"
  },
  {
    "Compound": "CC(=O)N1CC(Oc2ccc(NC(=O)C(NC[C@@H](C)c3ccc(C#N)cc3)c3ccccc3)nc2)C1 (single isomer, unassigned) [2 Isomer 1]",
    "Study target": "full length p300 (Homo sapiens)",
    "Recorded metric": "pIC50",
    "Experimental value": "> 8.70"
  },
  {
    "Compound": "CC(CNC(C(=O)Nc1ccc(OC2CN(C(=O)C3CC3)C2)cn1)c1ccccc1)c1ccc(C#N)cc1 (single isomer, unassigned) [21 Isomer 1]",
    "Study target": "full length p300 (Homo sapiens)",
    "Recorded metric": "pIC50",
    "Experimental value": "> 8.70"
  }
]

Now take the following compound into account.
# pIC50 lookup, item CC(=O)N1CC(Oc2ccc(NC(=O)C(NCC(C)c3ccc(C#N)cc3)c3cccc(F)c3)nc2)C1 (single isomer, unassigned) [23 Isomer 1] > 8.52

###

# Study target: p300 HAT domain (residues 1287-1666) (Homo sapiens)
# Sequence (Q09472 1287-1666): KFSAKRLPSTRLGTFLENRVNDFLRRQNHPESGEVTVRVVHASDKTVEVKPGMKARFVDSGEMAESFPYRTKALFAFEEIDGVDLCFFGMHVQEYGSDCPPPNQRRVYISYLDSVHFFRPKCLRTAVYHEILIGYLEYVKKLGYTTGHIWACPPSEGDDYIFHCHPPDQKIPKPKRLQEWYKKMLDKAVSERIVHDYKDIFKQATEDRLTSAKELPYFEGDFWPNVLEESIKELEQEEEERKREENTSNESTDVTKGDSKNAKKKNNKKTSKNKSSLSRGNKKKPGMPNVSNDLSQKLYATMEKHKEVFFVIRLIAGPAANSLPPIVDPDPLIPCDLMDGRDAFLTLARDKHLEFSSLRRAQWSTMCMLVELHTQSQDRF
pIC50: −log10 of the molar value.
Below, each entry is listed alongside its reported pIC50.

[
  {
    "Compound": "CC(=O)N1CC[C@H](Oc2ccc(NC(=O)C(NCCc3ccc(C#N)cc3)c3ccccc3)nc2)C1 (single isomer, unassigned) [13 Isomer 1]",
    "Experimental value": "< 5.70"
  },
  {
    "Compound": "CN1CCC(Oc2ccc(NC(=O)C(NCCc3ccc(C#N)cc3)c3ccccc3)nc2)C1=O (single isomer, unassigned) [12 Isomer 3]",
    "Experimental value": "< 5.70"
  },
  {
    "Compound": "CN1CCC(Oc2ccc(NC(=O)C(NCCc3ccc(C#N)cc3)c3ccccc3)nc2)CC1 (single isomer, unassigned) [1 Isomer 2]",
    "Experimental value": "< 5.30"
  },
  {
    "Compound": "N#Cc1ccc(CCNC(C(=O)Nc2ccc(O[C@@H]3CCOC3)cn2)c2ccccc2)cc1 (single isomer, unassigned) [4 Isomer 2]",
    "Experimental value": "< 5.70"
  }
]

Now take the following compound into account.
# pIC50 lookup, item CC(=O)N1CC[C@@H](Oc2ccc(NC(=O)C(NCCc3ccc(C#N)cc3)c3ccccc3)nc2)C1 (single isomer, unassigned) [14 Isomer 2] < 5.70
